Assay: chemical genetic growth profiling, strain panel (AID 1159580);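 further: tested at 20 µM; growth read once vehicle control cultures reached saturation at 30 °C; lower values mean less growth of the strain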
Details: S. cerevisiae deletion strains, growth OD, locus YLR357W, strain rsc2
The whole screen tested about 5,500 compounds, of which about 2,000 (36%) were called active. Inconclusive results (about 18%) are left out. No stated cut-off is given here; in the data, active means normalized growth mostly below about 0.91 (no sharp cut-off); inconclusive means no clear call, values can overlap the other calls; inactive means mostly above about 0.92. The list shows a part of the results.
Tick one outcome: t for active, f for inactive

Q. Answer briefly: the call reported for C=C(CC)C(=O)c1ccc(OCC(=O)O)c(Cl)c1Cl in this assay.
A. f

Q. Answer briefly: the call reported for C1CNCCN1 in this assay.
A. f

Q. Answer briefly: the call reported for C=CC(C1=CC(=O)C=CC1=O)c1ccccc1 (stereo not given) in this assay.
A. f

Q. Answer briefly: the call reported for C=CC(C1=CC(=O)C(OC)=CC1=O)c1ccc(O)cc1 (stereo not given) in this assay.
A. f

Q. Answer briefly: the call reported for Nc1ccc(S(=O)(=O)Nc2ccccn2)cc1 in this assay.
A. f

Q. Answer briefly: the call reported for O=C(O)CF in this assay.
A. f

Q. Answer briefly: the call reported for Nc1ncnc2c1ncn2C1O[C@H](COP(=O)(O)O)[C@@H](O)[C@H]1O (stereo not given in full) in this assay.
A. f

Q. Answer briefly: the call reported for CCCCC(CC)CN1CN(CC(CC)CCCC)CC(C)(N)C1 (stereo not given) in this assay.
A. t

Q. Answer briefly: the call reported for CC(=O)O[C@@H]1CC2C(C)(C)C=CC(=O)[C@]2(C)C2CC[C@@]3(C)[C@H](c4ccoc4)OC(=O)C4OC43[C@@]21C (stereo not given in full) in this assay.
A. f

Q. Answer briefly: the call reported for CC(=O)NCCCS(=O)(=O)O in this assay.
A. f

Q. Answer briefly: the call reported for CCC(Cc1c(I)cc(I)c(N)c1I)C(=O)O (stereo not given) in this assay.
A. f

Q. Answer briefly: the call reported for O=C1CCCC2C3CC(CN12)[C@@H]1CCCCN1C3 (stereo not given in full) in this assay.
A. f

Q. Answer briefly: the call reported for C=CC(C1=CC(=O)C(OC)=CC1=O)c1ccccc1 (stereo not given) in this assay.
A. f

Q. Answer briefly: the call reported for COC(=O)C[C@H]1C(C)(C)C(=O)[C@@H]2CC3=C4CC(=O)O[C@@H](c5ccoc5)[C@]4(C)CCC3[C@@]1(C)C2=O (stereo not given in full) in this assay.
A. f

Q. Answer briefly: the call reported for OC[C@@H]1CCCN2CCCC[C@H]12 in this assay.
A. f

Q. Answer briefly: the call reported for C1CCN2CC3CC(CN4CCCCC34)C2C1 (stereo not given) in this assay.
A. f

Q. Answer briefly: the call reported for CN(C)CCOc1ccc(/C(=C(/CCCl)c2ccccc2)c2ccccc2)cc1 in this assay.
A. t

Q. Answer briefly: the call reported for CN[C@H](CC(=O)O)C(=O)O in this assay.
A. f

Q. Answer briefly: the call reported for Cc1ccc(/C(=C\CN2CCCC2)c2ccccn2)cc1 in this assay.
A. f

Q. Answer briefly: the call reported for CC(=O)/C(=C\c1ccccc1)CC(=O)O in this assay.
A. f

Q. Answer briefly: the call reported for O[N+]1=CC=CCC1=S.On1ccccc1=S.[Zn] in this assay.
A. t

Q. Answer briefly: the call reported for Oc1c(Br)cc(Br)c2cccnc12 in this assay.
A. t

Q. Answer briefly: the call reported for Oc1c(Cl)cc(Cl)c2cccnc12 in this assay.
A. t

Q. Answer briefly: the call reported for NCCCC[C@H](N[C@@H](CCc1ccccc1)C(=O)O)C(=O)N1CCC[C@H]1C(=O)O in this assay.
A. f

Q. Answer briefly: the call reported for COc1cccc(/C=C/C(=O)O)c1C(C)C in this assay.
A. f

Q. Answer briefly: the call reported for CC(=O)Nc1cc([As](=O)(O)O)ccc1O in this assay.
A. f

Q. Answer briefly: the call reported for O=C1O[C@H](C(O)CO)C(O)=C1O (stereo not given in full) in this assay.
A. f

Q. Answer briefly: the call reported for Cc1ccc2c(Cl)cc(Cl)c(O)c2n1 in this assay.
A. f

Q. Answer briefly: the call reported for Cc1c(O)c(O)cc2c1CC=C1[C@@]2(C)CC[C@@]2(C)C3C[C@](C)(C(=O)O)CC[C@]3(C)CC[C@]12C (stereo not given in full) in this assay.
A. t

Q. Answer briefly: the call reported for C[C@H](N)[C@H](O)c1ccc(O)c(O)c1 in this assay.
A. f
